Data credit: PubChem BioAssay (NCI)

Tested on: NCI-H522 lung
Assay: NCI-60 one-dose screen, 48 h
Details: 10 µM unless noted
The panel holds about 83,000 compounds, 20% with a hit somewhere; the sample as a whole holds those more often. Calls of active or inactive are those of the source. How the source made its calls: active means growth percent below 10; inactive means the rest.
Outcomes: active, inactive

| COMPOUND | QUALITATIVE LABEL |
| --- | --- |
| Cn1c(=O)c2[nH]c(SC/C(=N/O)c3ccc(Br)cc3)nc2n(C)c1=O | active |
| CCOC(=O)c1cnn(CC(C)O)c1NC(=O)NCc1cccc(F)c1 (stereo not given) | inactive |
| COC12C=C/C(=C(/C(=O)OCc3cncnc3)C(=O)CCCCCCCCC3(OC)C=C/C(=C(/C(=O)OCc4cncnc4)C(=O)CCCCCCCC1)O3)O2 | active |
| CCC(C)(C)c1ccc(Nc2ccc(Nc3ccc(C(C)(C)CC)cc3)cc2)cc1 | inactive |
| COc1cccc(CNc2c3ccccc3nc3ccccc23)c1OC | inactive |
| O=C1CCCC1[n+]1ccccc1 (stereo not given) | inactive |
| CN(C)CCC(CCN(C)C)(C(=O)O)c1ccccc1 | inactive |
| N#Cc1ccccc1-c1ccc(CN2C(=O)S/C(=C\c3ccc(Br)cc3)C2=O)cc1 | inactive |
| CNC(=O)c1cc(Oc2ccc3c(c2)sc2nc(-c4cc(C(F)(F)F)cc(C(F)(F)F)c4)cn23)ccn1 | inactive |
| C#CCOc1cccc(Nc2ncnc3cc(NC(=O)CCl)ccc23)c1 | active |
| Cc1cc(O)c(=O)cc2c1C[C@H]1CC(C)(C)/C=C/C[C@]3(C)Oc4cc(=O)c(O)cc(C)c4C[C@H]3C[C@H](O)[C@@]1(C)O2 | active |
| COc1cc(-c2cc(-c3ccc(Nc4nc(Nc5ccc(Cl)cc5)nc(Nc5ccc(Cl)cc5)n4)cc3)no2)cc(OC)c1OC | inactive |
| O=C1CCC(C(=O)N/N=C/c2cc(F)ccc2F)N1 (stereo not given) | inactive |
| CCn1cc(C(=O)N/N=C/c2cccc(F)c2)c(=O)c2cc(F)c(N3CCNC(C)C3)c(F)c21 (stereo not given) | active |
| Nc1cc(Br)cc2c1[nH]c(=O)c1ccccc12 | inactive |
| CS(=O)(=O)Nc1cc(-c2ccc3ncnc(Nc4ccc(OCc5ccccn5)c(Cl)c4)c3c2)cnc1Cl | active |
| COc1cc(/C=C/c2cc(/C=C/c3ccc(O)c(OC)c3)n(C(=O)Nc3ccc(Cl)cc3)n2)ccc1O | active |
| Cc1ccc2cnc(N)c(C#Cc3cc(C(=O)Nc4ccc(CN5CCN(C)CC5)c(C(F)(F)F)c4)cnc3C)c2c1 | active |
| O=C(NNc1nc2cc(F)ccc2n2c(CN3CCOCC3)ccc12)c1ccccc1 | active |
| O=Nc1ccc(NC(=O)Nc2ccc([N+](=O)[O-])cc2)cc1 | inactive |
| Cc1c2ccccc2nc2cc3c(cc12)[C@H]1CC[C@]2(C)C(=O)CC[C@H]2[C@@H]1CC3 | inactive |
| Fc1ccc2[nH]cc(-c3nc(-c4c[nH]c5c(Cl)nccc45)cs3)c2c1 | inactive |
| CCN(CC)CCOc1ccc(C(=O)/C=C\c2ccc(Cl)cc2Cl)cc1 | inactive |
| C#Cc1cccc(Nc2ncnc3cc(NC(=O)CCl)ccc23)c1 | active |
| CS(=O)(=O)Nc1cc(-c2ccc3ncnc(Nc4ccc(F)c(Cl)c4)c3c2)ccc1Cl | inactive |
| O=C1c2cccnc2C(=O)c2c1c(C(=O)OCCc1ccccn1)c1ccccn21 | active |
| CCN1CCN(CCNc2nccc(-c3c(-c4ccc(F)c(O)c4)nc4occn34)n2)S1(=O)=O | active |
| O=C(/C=C/c1cccc(Oc2ccccc2)c1)c1ccc(Nc2nc(Nc3ccc(F)cc3)nc(Nc3ccc(Cl)cc3)n2)cc1 | inactive |
| CC1(C)CC[C@]2(CO)CC[C@]3(C)[C@](O)([C@H](O)C[C@@H]4[C@@]5(C)CCCNC(C)(C)[C@@H]5CC[C@]43C)[C@@H]2C1 | inactive |
| CN(C)c1ccc(/C=N\NC(=O)c2ccc3nc(-c4ccc(Cl)cc4)[nH]c3c2)cc1 | inactive |

----------
List of growth values.
Tested on: SF-539 CNS
Experiment: NCI-60 one-dose screen, 48 h (100 = growth as untreated, 0 = no growth, -100 = all killed)
Conditions: 10 µM unless noted
The panel holds about 83,000 compounds, 20% with a hit somewhere; the sample as a whole holds those more often.

| COMPOUND | growth [%] |
| --- | --- |
| COc1cc(C[C@H]2COc3cc(O)cc(O)c3C2=O)ccc1O | 3.27 |
| N=C(N)c1ccc(OCCSCCOc2ccc(C(=N)N)cc2)cc1 | 76.5 |
| O=C(Nc1ncc(Cc2ccccc2)s1)c1sc2ccccc2c1Cl | -1.43 |
| COc1ccc(C/C(C)=C(\c2ccc(Cl)cc2)c2ccc(OCCCN(C)C)cc2)cc1 | 84.7 |
| Oc1c(CN2CCC(N3CCOCC3)CC2)cc(Cc2cc(CN3CCC(N4CCOCC4)CC3)c(O)c3ncccc23)c2cccnc12 | 6.51 |
| N#Cc1ccc(O)c(C2=NCC(c3ccc(-c4ccccc4)cc3)O2)c1 (stereo not given) | -9.06 |
| O=C(NCc1ccc(Cn2c(=O)sn(-c3ccccc3)c2=O)cc1)OCc1ccc2cccc(O)c2n1 | -91.7 |
| CNC(=O)c1cc(Oc2ccc3c(c2)sc2nc(-c4ccc(NC(=O)[C@@H](NC(=O)OC)C(C)C)cc4)cn23)ccn1 | 88.2 |
| Nc1ncnc2c1N=C(c1ccc(Cl)cc1)CC(c1cccc(Nc3ccnc4cc(Cl)ccc34)c1)N2 (stereo not given) | 76 |
| COc1ccc(N/N=C/c2cn(-c3ccc(C(=O)O)cc3)nc2-c2cc3ccccc3oc2=O)cc1 | 50 |
| O=c1oc2c(cnc3ccccc32)cc1-c1cccc(Cl)c1 | 95.2 |
| CN(C)CCCn1c2c(c3cnccc3c1=O)C(=O)c1ccccc1-2 | -6.26 |
| CN(C)CCCNC(=O)c1cncnc1Nc1ccc2c(ccn2Cc2cccc(F)c2)c1 | 83.7 |
| COC1C(O)CC(OC2CC(OC3CC(O[C@@H]4C(=O)c5c(cc6cc(OC7CC(OC8CC(O)C(O)C(C)O8)C(O)C(C)O7)c(C)c(O)c6c5O)CC4[C@H](OC)C(=O)O)OC(C)C3O)OC(C)C2O)OC1C (stereo not given in full) | 5.86 |
| Nc1cc(-c2ccc(Cl)cc2)nn1-c1nnc(/C=C/c2ccco2)c(=O)[nH]1 | 55.4 |
| Cn1cc(-c2csc(-c3cn(CCCN4CCOCC4)c4ccc(F)cc34)n2)c2cccnc21 | 57.6 |
| O=C(NCCCCCCNC(=O)OCc1ccc2c(Cl)cc(Cl)c(O)c2n1)OCc1ccc2c(Cl)cc(Cl)c(O)c2n1 | -97.1 |
| C(=C(\C1=NCCN1)n1ccc2ccccc21)/c1ccccc1 | 99.5 |
| O=C(NN1C(=O)CSC1c1cccc([N+](=O)[O-])c1)c1ccc(NC(=O)c2ccccn2)cc1 (stereo not given) | 99.8 |
| COc1ccc(/C=C(/C(=O)N2CCNCC2)c2cc(OC)c(OC)c(OC)c2)cc1O | 6.82 |
| O=C1C=CC2(O)OC/C(=C\c3ccccc3)C(O)=C2C1=O (stereo not given) | -38.8 |
| O=C(O)c1cn(C2CC2)c2cc(N3CCN(C(=O)N4CCOCC4)CC3)c(F)cc2c1=O | 102 |
| Cc1ccc(S(=O)(=O)c2nc(-c3ccccc3)oc2SCC(N)=O)cc1 | 97.2 |
| COc1cc2c(cc1OCCCN1CCN(C(=S)SCCC(C#N)(c3ccccc3)c3ccccc3)CC1)N=C[C@@H]1CCCN1C2=O | -94.7 |
| Cc1cc(=O)n(C(=S)Nc2ccc(Cl)cc2)c2cc(O)ccc12 | 101 |

----------
Test system: OVCAR-3 ovarian
Assay: NCI-60 one-dose screen, 48 h (100 = growth as untreated, 0 = no growth, -100 = all killed)
Settings: 10 µM unless noted
About 83,000 compounds went through this panel and 20% of them were active in at least one assay; those are over-represented in the sample as a whole.

| MOLECULE | TGT | OUTPUT UNIT | growth |
| --- | --- | --- | --- |
| C(=C(\C1=NCCN1)n1ccc2ccccc21)/c1ccccc1 | OVCAR-3 ovarian | % | 104 |
| CN(C)CCCn1c2c(c3cnccc3c1=O)C(=O)c1ccccc1-2 | OVCAR-3 ovarian | % | -11.8 |
| CC/C(=C(\c1ccc(Cl)cc1)c1ccc(OCCN2CCCCC2)cc1)c1ccc(O)cc1 | OVCAR-3 ovarian | % | 40.4 |
| C=CC(CC(c1ccccc1)(c1ccccc1)c1ccccc1)N(CC)CC (centres undefined) | OVCAR-3 ovarian | % | 70.1 |

----------
Test system: NCI-H226 lung
Assay: NCI-60 one-dose screen, 48 h (100 = growth as untreated, 0 = no growth, -100 = all killed)
Conditions: 10 µM unless noted
Protocol: Growth inhibition of the NCI-H226 human Non-Small Cell Lung tumor cell line is measured as a screen for anti-cancer activity. Cells are grown in 96 well plates and exposed to the test compound for 48 hours. Compounds are tested at a single concentration, which is 10^-5 M for most compounds. The reported endpoint is percent growth (GI% or GIPRCNT), where numbers from 0 - 100% represent growth inhibition, and numbers from -100% - 0 represent cell death. […]
About 83,000 compounds went through this panel and 20% of them were active in at least one assay; those are over-represented in the sample as a whole.
# binning rule on growth: lower: < 20%; middle: ≥ 20% and < 70%; upper: ≥ 70%

| COMPOUND | QUALITATIVE LABEL |
| --- | --- |
| CC1=C(Cl)C(=O)c2cc(C)ccc2C1=O | upper |
| c1ccc(-c2c(-c3ccccc3)[n+](Cc3ccc4ccccc4c3)cn2Cc2ccc3ccccc3c2)cc1 | lower |
| N#Cc1ccc(/C=C/c2cn(-c3ccccc3)nc2-c2cccc([N+](=O)[O-])c2)cc1 | lower |
| C#CCOc1ccc2nc(CCl)c(Cl)c(Nc3cccc(C(F)(F)F)c3)c2c1 | upper |
| C#CCOc1cccc(Nc2ncnc3c2ncn3C2CCN(C(=O)CCl)C2)c1 (stereo not given) | lower |
| O=C(Nc1ncc(Cc2ccccc2)s1)c1sc2ccccc2c1Cl | middle |
| O=C1OCC2=C1C(c1ccccc1)c1cc3c(cc1N2CCO)OCCO3 (stereo not given) | lower |
| O=S(O)c1cc(Cl)cc(Cl)c1OCc1ccccc1 | upper |
| N=C(N)c1ccc(OCCSCCOc2ccc(C(=N)N)cc2)cc1 | middle |
| CC(C)(Sc1cc(C(C)(C)C)c(O)c(C(C)(C)C)c1)Sc1cc(C(C)(C)C)c(OC(=O)CCC(=O)O)c(C(C)(C)C)c1 | middle |
